System: YSK1
Construct: gene STK25
Settings: concentration: 1 μM, replicates: in singlicate; n = 1;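 also: KINOMEscan kinase panel screen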
Result Type: %Inh (%)

>>> print(df.to_string())
                                   compound  u  experimental_result
0  O=c1cc(N2CCOCC2)nc2n(Cc3ccccc3F)ccn12 [GSK2297428]  %                    0
1  O=C(Nc1n[nH]c2nc(-c3cccs3)c(Br)cc12)C1CCCC1 [SB-743341]  %                    0
2  Nc1nccc(-c2c(-c3ccc(F)cc3)ncn2C2CCN(Cc3ccccc3)CC2)n1 [SB-219980]  %                    0
3  FC(F)(F)c1ccccc1-c1cc(-c2c[nH]nc2-c2ccccn2)ccn1 [GW679396]  %                    0
4  Cc1ccccc1-c1cc(-c2c[nH]nc2-c2ccccn2)ccn1 [GW680061]  %                    3
5  Cc1ccc(NC(=O)Nc2ccccc2F)cc1-c1ccc(C(=O)Nc2ccncc2)cc1 [GSK1398477]  %                    3
6  COc1ccc(Nc2nccc(N3CCC(NC(=O)C(C)c4ccc(Cl)cc4)C3)n2)cc1 (stereo not drawn) [GSK1379735]  %                    0
7  COc1ccc(CSc2nnc(-c3ccc4nccn4c3)o2)cc1C(F)(F)F  %                   14
8  Cc1ccc(NC(=O)Nc2ccccc2)cc1-c1ccc(C(=O)Nc2ccncc2)cc1 [GSK1398471]  %                   21

* * *

Tested on: TAOK3
Settings: concentration: 1 μM, replicates: in singlicate; n = 1
Result Type: %Inh (%)

>>> df
                                   molecule  study_system  experimental_result
0     Fc1ccc(-c2nn3cccc(F)c3c2-c2ccncc2)cc1         TAOK3                    0
1    CC(C)c1cc(-c2ccc3c(N)n[nH]c3c2)nc(N)n1         TAOK3                    0
2  CS(=O)(=O)CCNCc1nc(-c2ccc3ncnc(Nc4ccc(OCc5ccccc5)c(Cl)c4)c3c2)cs1.Cl         TAOK3                    0
3     Cc1ccccc1Cn1ccn2c(=O)cc(N3CCOCC3)nc12         TAOK3                    0
4  CS(=O)(=O)Cc1ccc(Nc2nccc(-c3c(-c4cccc(NC(=O)C5CCCCC5)c4)nn4ncccc34)n2)cc1         TAOK3                    0
5  COc1ccc(Nc2nccc(N3CCC(NC(=O)c4cc5ccccc5s4)C3)n2)cc1 (stereo not drawn)         TAOK3                    0
6           Fc1ccc(-c2nc[nH]c2-c2ccncc2)cc1         TAOK3                    7
7  NS(=O)(=O)c1cccc(N/C=C2\C(=O)Nc3ccc(S(=O)(=O)Cc4c(Cl)cccc4Cl)cc32)c1         TAOK3                   10
8  CC(=O)c1c(C)c2cnc(Nc3ccc(N4CCNCC4)cn3)nc2n(C2CCCC2)c1=O         TAOK3                    0
